assay: Plasma protein binding (ultrafiltration); format: in vitro ADME; details: mouse or human plasma (species not given), 37° C.
Recorded measurements of percentage of compound protein bound, one per entry
Hi! Could you send only the number? It should be in %, unit omitted.

>>> numeric_value("C/C1=C/C[C@@H](/C(C)=C/c2csc(C)n2)OC(=O)C[C@H](O)C(C)(C)C(=O)[C@H](C)[C@@H](O)[C@@H](C)CCC1 [Epothilone D, Desoxyepothilone B, reference compound]")
98.5

Lookup: What does the data say about its percentage of compound protein bound? Entry: C/C1=C/C[C@@H](/C(C)=C/c2csc(CO)n2)OC(=O)C[C@H](O)C(C)(C)C(=O)[C@H](C)[C@@H](O)[C@@H](C)/C=C/C1 [21-OH 9,10-dehydroepothilone D, 21-hydroxy-9,10-dehydro-epothilone D]
Found: 94.2
